Origin of measurements: PubChem BioAssay (NCI)

- System: DMS 273 small cell lung
- assayName: NCI tumour cell line growth inhibition, 48 h
testReadout: TGI

Examples with their reported TGI follow.
>>> experimentalvalue("CCC(C)NC1=C(NC(C)=O)C(=O)c2ccccc2C1=O (stereo unspecified)")
"> 75 µM"
>>> experimentalvalue("O=C1c2ccccc2C(=O)N1CCn1nc(-c2ccccc2)cc(-c2ccccc2)c1=O")
"> 100 µM"
>>> experimentalvalue("C#CC[N+](CCO)(CCO)CCCCCCCCCCCCCCCCCC")
"22.6 µM"
>>> experimentalvalue("COc1cc(C(=O)C(CO)Oc2ccccc2OC)ccc1O (stereo unspecified)")
"> 100 µM"
>>> experimentalvalue("COc1cc(/C=C/c2cccnc2)cc(OC)c1OC")
"> 100 µM"

Then this compound:
Short answer for "Cc1ccc(NC(=O)CC/C(CC(=O)C(C)(C)C)=N/Nc2nnc(C)n2N)cc1C" : TGI was > 100 µM

====

- System: SR leukemia
- assayName: NCI tumour cell line growth inhibition, 48 h
testReadout: log10 TGI (log10 of the value in µM)
In our notation, the value equals log10 of TGI in µM.

>>> experimentalvalue("CC(=O)O[C@H]1CC2C(C3CC[C@H](C(C)CCC(N)=O)[C@]31C)[C@H](OC(C)=O)C[C@@H]1CC3(CC[C@]21C)OOC1(CCC(C)CC1)OO3 (some centres undefined)")
0.52
>>> experimentalvalue("COc1ccc(-c2cc3c(OC)c(OC)c(OC)cc3oc2=O)cc1")
1.10
>>> experimentalvalue("COc1ccc(/C=N/Nc2nc(N)nc(N3CCCC3)c2C#N)cc1")
1.44
>>> experimentalvalue("CCSc1ccc2c(c1)N(CCCN1CCN(C)CC1)c1ccccc1S2")
0.94
>>> experimentalvalue("C/C=C(/C(=C/C)c1ccc(O)cc1)c1ccc(O)cc1")
1.97

Entry "Cc1cc(I)cc(CN(C)CCN(C)C)c1O" : log10 TGI on SR leukemia = 1.70

Entry "COc1ccc(-c2cnoc2-c2ccc(OC)cc2O)cc1" : log10 TGI on SR leukemia = 1.11

Entry "COc1ccc(CN2CCc3c(Sc4ccccc4)nc(N)nc3C2=O)c(OC)c1" : log10 TGI on SR leukemia = 1.35

====

- Test system: MALME-3M melanoma
- assayName: NCI tumour cell line growth inhibition, 48 h
testReadout: GI50

>>> experimentalvalue("CC(C)(C)CC(C)(C)c1ccc(OCCSC(=N)N)cc1")
"1.81 µM"
>>> experimentalvalue("Cc1ccc(NS(=O)(=O)c2ccc(-c3cnc(C4CC4)o3)cc2)cc1C")
"0.683 µM"
>>> experimentalvalue("CCSc1ccc2c(c1)N(CCCN1CCN(C)CC1)c1ccccc1S2")
"1.58 µM"
>>> experimentalvalue("CC(C)(Oc1ccc(Cl)cc1)C(=O)NC1C2CC3CC1CC(NS(C)(=O)=O)(C3)C2 (stereo not drawn)")
"55.5 µM"
>>> experimentalvalue("CCCCC/C=C/C(=O)CCc1ccc(O)c(OC)c1")
"16.6 µM"
>>> experimentalvalue("COc1ccc(CN2CCc3c(Sc4ccccc4)nc(N)nc3C2=O)c(OC)c1")
"1.58 µM"

Short answer for "Cc1ccc2c(NCCCN(C)C)c3c(C)nn(C)c3nc2c1" : GI50 was 4.97 µM

Short answer for "c1cc(N2CCN(c3ccc(C4=NCCN4)cc3)CC2)ccc1C1=NCCN1" : GI50 was 48.8 µM
